Sourced from patent US20240002497A1

In this section, each of the binders is paired with its reported Bmax relative to '535.
molecular target: T1, huNav1.7α+β1 (human, UniProt Q15858 1-1988; Q07699 19-218); assay: binding FACS, HEKa/β1 cells
T1 construct: also called huNav1.7-beta1; HEKa/β1
Your answer should be a plain number; it is taken to be in %.

Here's what some known entries look like.
Binder	Unit Name	Bmax relative to '535
F010301458 (VHH, vs F0103265A11: A31R, Y56W, V60N, S93A, L103Q) VHH: EVQLVESGGGLVQPGGSLRLSCAASGMLFNRNTQGWYRQAPGKQRELVAFIFSGGWTNYNDSVKGRFTISRDNAKRTMYLQMNSLKPEDSAIYYCALSRYQGQGTLVTVSS	%	120
F010301055 (VHH, vs F0103265A11: S53W, T57V) VHH: EVQLVESGGGLVQPGGSLRLSCAASGMLFNANTQGWYRQAPGKQRELVAFIFWGGYVNYVDSVKGRFTISRDNAKRTMYLQMNSLKPEDSAIYYCSLSRYLGQGTLVTVSS	%	117
F010301090 (VHH, vs F0103265A11: Y56W, N58T, V60N, L103Q) VHH: EVQLVESGGGLVQPGGSLRLSCAASGMLFNANTQGWYRQAPGKQRELVAFIFSGGWTTYNDSVKGRFTISRDNAKRTMYLQMNSLKPEDSAIYYCSLSRYQGQGTLVTVSS	%	102
F010300534 (VHH, vs F0103265A11: T57V) VHH: EVQLVESGGGLVQPGGSLRLSCAASGMLFNANTQGWYRQAPGKQRELVAFIFSGGYVNYVDSVKGRFTISRDNAKRTMYLQMNSLKPEDSAIYYCSLSRYLGQGTLVTVSS	%	62
F010301111 (VHH, vs F0103265A11: T57V, V60N, S93A) VHH: EVQLVESGGGLVQPGGSLRLSCAASGMLFNANTQGWYRQAPGKQRELVAFIFSGGYVNYNDSVKGRFTISRDNAKRTMYLQMNSLKPEDSAIYYCALSRYLGQGTLVTVSS	%	99
F010301162 (VHH, vs F0103265A11: A31R, Y56W, V60N, L103Q) VHH: EVQLVESGGGLVQPGGSLRLSCAASGMLFNRNTQGWYRQAPGKQRELVAFIFSGGWTNYNDSVKGRFTISRDNAKRTMYLQMNSLKPEDSAIYYCSLSRYQGQGTLVTVSS	%	115

May I ask what Bmax relative to '535 has been recorded for F010300535 (VHH, vs F0103265A11: S53W) VHH: EVQLVESGGGLVQPGGSLRLSCAASGMLFNANTQGWYRQAPGKQRELVAFIFWGGYTNYVDSVKGRFTISRDNAKRTMYLQMNSLKPEDSAIYYCSLSRYLGQGTLVTVSS ? 100

GET /values?readout=Bmax relative to '535&item= F010301188 (VHH, vs F0103265A11: A31R, V60N, L103Q) VHH: EVQLVESGGGLVQPGGSLRLSCAASGMLFNRNTQGWYRQAPGKQRELVAFIFSGGYTNYNDSVKGRFTISRDNAKRTMYLQMNSLKPEDSAIYYCSLSRYQGQGTLVTVSS 104
